Tested on: MS2 coat protein
ASSAY_PROTOCOL: apparent KD of MS2 coat protein; higher = weaker reporter binding
CONDITIONS_USED: Eterna round: R107; input ligand: theophylline 20 uM
MEASURED_PARAMETER: apparent KD of MS2 coat protein (nM)
The response must be a number in nM with no trailing unit.

Recorded results for 3 sequences are shown here.
[
  {
    "SEQUENCE_ENTRY": "ACGUGCAGCAGAAGGAGCGUCUUAAUUCUACAUGAGGAUCACCCAUGUUUACAUUGGAUAUGACAGGUAGGUCGCUGAAGUACGA [#05 Same State - Arginine B]",
    "apparent KD of MS2 coat protein / nM": 41.7
  },
  {
    "SEQUENCE_ENTRY": "ACGGAUCGGAAACGAUCCGCGGCAAGGGUACGAGGACCGGUACGGCCGCCACUCGGCUAACAUGAGGAUCACCCAUGUCCGAAGA [ETA NP+V+V2 #8]",
    "apparent KD of MS2 coat protein / nM": 59.7
  },
  {
    "SEQUENCE_ENTRY": "GGCUAUACUACGGCCGCCACUGAACAUGAGGAUCACCCAUGUAAUGUUCAGAUUUUUUUUUUUUACAGGACCGGGUAGAAUUGCC [Tryptophan B 3]",
    "apparent KD of MS2 coat protein / nM": 220
  }
]

Incoming: Need apparent KD of MS2 coat protein of AAUAUUUGCCACAUGAGGAUCACCCAUGUGCGAGGACCGGUACGGCCGCCACUCGGUCGGUGGUUAAUGAAGAUAAACAAUAAUG [XTryp A #11] , thanks.
Outgoing: 15.7

Incoming: Value lookup for apparent KD of MS2 coat protein; key = GUCCUAGCGAGCACUCGCUAGGACGCGGAUACCAGCGAGGUCCAUCGCCCUUGGCAGCCGAACAUGAGGAUCACCCAUGUCGGUA [#1 Same State - Theophylline A Attempt #17 (HarryS)]
Outgoing: 13.2

Incoming: apparent KD of MS2 coat protein lookup needed for GUAUUACGGACGGCCGCCACUGUGGGACAUGAGGAUCACCCAUGUGGCGCUACUUACAAGUGCGACAGGACCGGGUCAUGGUUUG [theeternabot_sameState_MS2_Trp_B_1] , thanks.
Outgoing: 732

Incoming: Give the measured apparent KD of MS2 coat protein of AUAAGGUAUCUGCUUCAUGGGUGAGCAGAUACCAGCUAGGAAACUAGCCCUUGGCAGCUGCAACAUGAGGAUCACCCAUGUAAUA [(T)'-(M)'-(T1)-(T2)-(M1)-(M2)_Design2] .
Outgoing: 149

Incoming: Which apparent KD of MS2 coat protein value is on record for ACCUGUACGAAAAGUGCAGGACAGGAAAAUCGAGGACCGGUACGGCCGCCACUCGUAUAAACAAGUGGAUCACCCUUGUAACCUG [TrypAS 1 #AlternativeMS2 #Zipper] ?
Outgoing: 1060

Incoming: Param item = GUAGCGACGGCGGCCGCCACUCACAGGUGAGGGUAGACCAACCUUCACAUGAGGAUCACCCAUGUGAGGACCGGGCUGUCGCUAC [#13 Exclusion Tryptophan B] ; retrieve measured apparent KD of MS2 coat protein.
Outgoing: 117

Incoming: Looking for the measured apparent KD of MS2 coat protein of UGACAUGAGGAUCACCCAUGUAUAACUGAAGGAGCGUCCAUAAGGACAGGUAGGUCGCGGAAUGAACAGAGUGCACGACAUGUUU [Arg A SS t1] , can you help?
Outgoing: 17.7

Incoming: What value of apparent KD of MS2 coat protein has been reported for the following sequence? GAGGAAACUCACAUGAGGAUCACCCAUGUACGAGGACCGGUACGGCCGCCACUCGAAACCAUGGGCGGUAGUACGUGGAAGCUUG [Design 2 MOD 2]
Outgoing: 31.3

Incoming: Tell me the measured apparent KD of MS2 coat protein of GCAUCCUAGUCGGCCGCCACUGCAAUUGUAAUACUGCUACAUGAACAUGAGGAUCACCCAUGUAGCAGGACCGGGACUAGGAUGC [(Trp1)-(TM)''-(TM)'-(Ms2)-(Trp2)_Design9] , please.
Outgoing: 185
